measurement-target: GRK6, recombinant full-length GST-tagged human protein (Homo sapiens)
Construct: GRK6, recombinant full-length GST-tagged human protein; GST
Sequence (P43250 whole entry): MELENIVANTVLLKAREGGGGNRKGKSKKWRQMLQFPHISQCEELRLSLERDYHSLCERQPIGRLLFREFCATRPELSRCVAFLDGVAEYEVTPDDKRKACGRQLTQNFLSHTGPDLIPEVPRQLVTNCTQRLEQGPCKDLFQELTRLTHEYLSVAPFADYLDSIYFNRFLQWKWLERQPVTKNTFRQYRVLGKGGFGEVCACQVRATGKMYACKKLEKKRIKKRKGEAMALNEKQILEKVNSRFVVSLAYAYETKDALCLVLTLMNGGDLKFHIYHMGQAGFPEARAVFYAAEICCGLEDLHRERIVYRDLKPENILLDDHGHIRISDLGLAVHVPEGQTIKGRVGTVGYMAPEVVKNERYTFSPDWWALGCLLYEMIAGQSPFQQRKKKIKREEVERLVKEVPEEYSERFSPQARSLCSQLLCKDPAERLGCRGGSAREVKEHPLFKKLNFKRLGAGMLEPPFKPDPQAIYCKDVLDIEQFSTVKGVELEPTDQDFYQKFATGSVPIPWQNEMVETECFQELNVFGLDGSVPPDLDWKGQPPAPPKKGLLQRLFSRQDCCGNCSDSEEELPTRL
protocol-text: GRK6 IC50 determination (8-point concentration-response)
Type: biochemical
Parameter IC50: see the listing below.
observation-type: IC50 (nM)

[[record]]
mol_smiles = "O=C(O)CSc1nnc(-c2cc(-c3ccc4c(c3)OCO4)cc([N+](=O)[O-])c2)[nH]1"
assay_result = 275

[[record]]
mol_smiles = "O=C(O)CSc1nnc(-c2cc(-c3ccc4cc[nH]c4c3)cc([N+](=O)[O-])c2)[nH]1"
assay_result = 122

[[record]]
mol_smiles = "Cc1cn(C)c2ccc(-c3cc(-c4nnc(SCC(=O)O)[nH]4)cc([N+](=O)[O-])c3)cc12"
assay_result = 150

[[record]]
mol_smiles = "O=C(O)CSc1nnc(-c2cccc3cnccc23)[nH]1"
assay_result = 29600

[[record]]
mol_smiles = "CCn1cc(-c2cc(-c3nnc(SCC(=O)O)[nH]3)cc([N+](=O)[O-])c2)cn1"
assay_result = 342

[[record]]
mol_smiles = "O=C(O)CSc1nnc(-c2cccc(C(=O)Nc3cccnc3)c2)[nH]1"
assay_result = 34000

[[record]]
mol_smiles = "O=C(O)CSc1nnc(-c2cc(Br)cc([N+](=O)[O-])c2)[nH]1"
assay_result = 1350

[[record]]
mol_smiles = "Cn1ccc(-c2cc(-c3nnc(SCC(=O)O)[nH]3)cc([N+](=O)[O-])c2)n1"
assay_result = 431

